Catalogue of compounds with associated Emax (% RR)
EXPERIMENTAL_TARGET: GPR119 (Homo sapiens, UniProt Q8TDV5)
Construct: host or cells: CHO-K1 (GPR119 CRE-bla, doxycycline-induced)
Sequence (Q8TDV5 whole entry): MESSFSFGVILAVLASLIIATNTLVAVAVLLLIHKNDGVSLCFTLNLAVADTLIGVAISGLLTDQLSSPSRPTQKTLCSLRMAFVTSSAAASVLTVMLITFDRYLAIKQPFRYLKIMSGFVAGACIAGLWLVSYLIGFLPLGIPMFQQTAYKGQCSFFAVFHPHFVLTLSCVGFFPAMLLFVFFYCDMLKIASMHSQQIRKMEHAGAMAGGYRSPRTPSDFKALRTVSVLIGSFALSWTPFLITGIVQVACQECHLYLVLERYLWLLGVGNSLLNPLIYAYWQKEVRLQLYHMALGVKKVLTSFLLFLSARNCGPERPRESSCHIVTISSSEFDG
ASSAY_EXPLANATION: cAMP Accumulation Assay (GPR119 CRE-bla CHO-K1 cells, LiveBLAzer-FRET B/G)
Assay type: cell-based
CONDITION_CONTEXT: (Emax of the test compound/Emax of MBX-2982)x100, 5 hours incubation

{"columns": ["SUBSTANCE_SMILES", "Emax (% RR)"],
 "data": [
  ["CCc1cnc(N2CCN(c3ncc(-c4ccc(-n5cnn(CCNS(C)(=O)=O)c5=O)c(F)c4)cc3C#N)[C@@H](C)C2)nc1", 111.7],
  ["COCn1ncn(-c2ccc(-c3cnc(N4CCN(c5noc(C(C)C)n5)CC4)c(C#N)c3)cc2)c1=O", 109.1],
  ["CCCn1ncn(-c2ccc(-c3cnc(N4CCN(C(=O)OC(C)(C)C)C[C@@H]4C)nc3)cc2F)c1=O", 101.6],
  ["CCc1cnc(N2CCN(c3ncc(-c4ccc(-n5cnn([C@H]6CCNC6)c5=O)cc4)cc3C#N)CC2)nc1", 109.3]
]}
